Origin of measurements: patent US20220402908A1

- TARGET: CXCR6 (Homo sapiens, UniProt O00574)
- Sequence (O00574 whole entry): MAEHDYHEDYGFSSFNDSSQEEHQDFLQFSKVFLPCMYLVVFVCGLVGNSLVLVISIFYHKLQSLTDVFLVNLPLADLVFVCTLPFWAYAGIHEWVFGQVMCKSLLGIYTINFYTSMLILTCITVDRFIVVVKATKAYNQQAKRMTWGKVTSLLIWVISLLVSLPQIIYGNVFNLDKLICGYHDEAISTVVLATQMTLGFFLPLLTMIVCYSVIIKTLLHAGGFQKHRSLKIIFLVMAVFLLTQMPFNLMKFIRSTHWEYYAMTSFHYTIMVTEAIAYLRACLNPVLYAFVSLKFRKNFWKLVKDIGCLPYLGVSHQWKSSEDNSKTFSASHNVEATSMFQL
- EXPERIMENT DESCRIPTION: CXCR6-dependent cAMP assay (Lance Ultra, PerkinElmer)
- Format: cell-based
- MEASUREMENT PARAMETERS: CXCR6-expressing cells, forskolin + CXCL16; Table B-1
OBSERVABLE: IC50

{"STRUCTURE SMILES": "COc1cc(C(=O)N[C@@H]2C[C@H]3CCC[C@@H](C2)N3Cc2nc3c(Cl)cccc3s2)cc(OC)c1OC", "OBSERVABLE": "IC50", "RECORDED RESULT": "0.1 to 2 µM"}
{"STRUCTURE SMILES": "COc1cc(C(=O)N[C@@H]2C[C@H]3CCC[C@@H](C2)N3Cc2cc3ccccc3s2)cc(OC)c1OC", "OBSERVABLE": "IC50", "RECORDED RESULT": "5 to 20 µM"}
{"STRUCTURE SMILES": "COc1cc(C(=O)N[C@@H]2C[C@H]3CCC[C@@H](C2)N3CC(=O)Nc2ccccc2Cl)cc(OC)c1OC", "OBSERVABLE": "IC50", "RECORDED RESULT": "2 to 5 µM"}

====

- TARGET: CXCR6 (Homo sapiens)
- EXPERIMENT DESCRIPTION: β-arrestin recruitment inhibition in CXCR6-expressing CHO-K1 cells (PathHunter, DiscoveRx)
- Assay type: cell-based

{"COMPOUND": "COc1cc(C(=O)N[C@@H]2C[C@H]3CCC[C@@H](C2)N3Cc2nc3c(C(F)(F)F)cccc3s2)ccc1OC(C)C", "IC50": "0.1 to 2 µM"}
{"COMPOUND": "COc1cc(C(=O)N[C@@H]2C[C@H]3CCC[C@@H](C2)N3Cc2nc3c(C(F)(F)F)cccc3s2)cc(OC)c1OC [Compound 1]", "IC50": "< 0.1 µM"}
{"COMPOUND": "COc1cc(C(=O)N[C@@H]2C[C@H]3CCC[C@@H](C2)N3Cc2nc3c(Cl)c(Cl)ccc3s2)cc(OC)c1OC", "IC50": "< 0.1 µM"}
{"COMPOUND": "COc1cc(C(=O)N2C[C@H]3CCC[C@@H](C2)N3Cc2nc3c(C(F)(F)F)cccc3s2)cc(OC)c1OC", "IC50": "0.1 to 2 µM"}
